Form field: growth (one value per entry).
# Tested on: MCF7 breast
# PROTOCOL: NCI-60 one-dose screen, 48 h (100 = growth as untreated, 0 = no growth, -100 = all killed)
# ASSAY_CONDITIONS: 10 µM unless noted
About 83,000 compounds went through this panel and 20% of them were active in at least one assay; those are over-represented in the sample as a whole.

{"COMPOUND": "COc1ccccc1NC1=C(Cl)C(=O)c2nc(C)ccc2C1=O", "UNIT_ABBREVIATION": "%", "growth": -60.4}
{"COMPOUND": "CCOC(=O)c1c(Nc2ccccc2)nn2c(-c3ccc(OC)cc3)ccnc12", "UNIT_ABBREVIATION": "%", "growth": 89.9}
{"COMPOUND": "Cc1ccc(N2C(=O)/C(=C/C=C/c3ccco3)SC2=S)cc1", "UNIT_ABBREVIATION": "%", "growth": 66.4}
{"COMPOUND": "Nc1nc(Nc2ccccc2SSc2ccccc2Nc2nc(N)nc(-c3cccc(Br)c3)n2)nc(-c2cccc(Br)c2)n1", "UNIT_ABBREVIATION": "%", "growth": 69.2}
{"COMPOUND": "NC(N)=Nc1ccc(Oc2ccc(Nc3ccc(Cl)c(C(F)(F)F)c3)cc2)cc1", "UNIT_ABBREVIATION": "%", "growth": 2.64}
{"COMPOUND": "CN1CCN(Cc2ccc(NC(=O)c3cncc(C#Cc4cnn5cccnc45)c3)cc2C(F)(F)F)CC1", "UNIT_ABBREVIATION": "%", "growth": -2.5}
{"COMPOUND": "NC(N)=Nc1ccc(Oc2cccc(NC(N)=Nc3ccc(Br)c(C(F)(F)F)c3)c2)cc1", "UNIT_ABBREVIATION": "%", "growth": 32.2}
{"COMPOUND": "CCC(NC(c1cc2cccc3ccc4cccc1c4c32)c1nnnn1C(C)(C)C)C1CCCCC1 (centres undefined)", "UNIT_ABBREVIATION": "%", "growth": 48.2}
{"COMPOUND": "O=C(Nc1nc2ccc([N+](=O)[O-])cc2s1)Nc1ccccc1Br", "UNIT_ABBREVIATION": "%", "growth": 24.8}

###

# Tested on: HS 578T breast
# PROTOCOL: NCI-60 one-dose screen, 48 h (100 = growth as untreated, 0 = no growth, -100 = all killed)
# ASSAY_CONDITIONS: 10 µM unless noted
The panel holds about 83,000 compounds, 20% with a hit somewhere; the sample as a whole holds those more often.
The label depends only on growth: yes (1) if it is at least 90%, no (0) if it is smaller.

{"MOLECULE": "Cc1cc(-c2ccc(Cl)cc2)n(Cc2nnc(SCC(=O)Nc3ccc(S(N)(=O)=O)cc3)n2C2CCCCC2)n1", "CLASS_LABEL": "yes (1)"}
{"MOLECULE": "COc1ccc(OC)c(-c2nc(SCC(=O)c3ccc(Br)cc3)nc(Nc3ccc(S(N)(=O)=O)cc3)c2C#N)c1", "CLASS_LABEL": "no (0)"}
{"MOLECULE": "CC(C)(C)n1cc(-c2ccnc(NCCCNS(=O)(=O)c3cccc(F)c3)n2)c(-c2ccc(Cl)c(O)c2)n1", "CLASS_LABEL": "yes (1)"}
{"MOLECULE": "CCN1CCN(Cc2ccc(C(=O)Nc3ccc(C)c(Oc4ccc(-c5[nH]nc6ncnc(N)c56)cc4)c3)cc2C(F)(F)F)CC1", "CLASS_LABEL": "no (0)"}
{"MOLECULE": "COc1cc(-c2nn(C(C)(C)C)cc2-c2ccnc(NCCCNS(=O)(=O)c3ccccc3)n2)ccc1Cl", "CLASS_LABEL": "no (0)"}
{"MOLECULE": "COc1ccc(C2CC(c3cccc(Nc4nc(Cl)nc5cc(OC)c(OC)cc45)c3)=Nc3c(N)nc(N)nc3N2)cc1 (stereo not drawn)", "CLASS_LABEL": "yes (1)"}
{"MOLECULE": "CN1CCN(Cc2ccc(NC(=O)c3cncc(C#Cc4cnn5cccnc45)c3)cc2C(F)(F)F)CC1", "CLASS_LABEL": "no (0)"}
{"MOLECULE": "O=C(CSc1nc2ccccc2c(=O)n1-c1ccccc1)Nc1ccc(-c2nc3ccc([N+](=O)[O-])cc3[nH]2)cc1", "CLASS_LABEL": "no (0)"}
{"MOLECULE": "COc1cc2oc(-c3cccc(NC(=O)c4cc(N)ccc4Cl)c3)cc(=O)c2c(OC)c1OC", "CLASS_LABEL": "yes (1)"}
{"MOLECULE": "O=c1[nH]c(Sc2sc3ccc(Cl)cc3c2CBr)nc(=S)[nH]1", "CLASS_LABEL": "no (0)"}
{"MOLECULE": "COc1ccc(CCN2C(=O)CSC2=S)cc1", "CLASS_LABEL": "yes (1)"}
{"MOLECULE": "COc1ccccc1-n1cc(C#N)c(N)c1C(=O)c1ccc(Br)cc1", "CLASS_LABEL": "no (0)"}
{"MOLECULE": "NC(N)=Nc1ccc(Oc2cccc(NC(N)=Nc3ccc(Cl)c(C(F)(F)F)c3)c2)cn1", "CLASS_LABEL": "no (0)"}
{"MOLECULE": "O=C(c1ccc(O)cc1)[C@@H]1CN[C@@]2(C(=O)Nc3ccccc32)[C@H]1c1ccc(F)cc1", "CLASS_LABEL": "yes (1)"}
{"MOLECULE": "COc1c(N2CC3CCCNC3C2)c(F)cc2c(=O)c(C(=O)N/N=C/c3ccc(N(C)C)cc3)cn(C3CC3)c12 (stereo not drawn)", "CLASS_LABEL": "yes (1)"}
{"MOLECULE": "COc1ccc(-n2c(SCc3n[nH]c(=S)o3)nc3ccc(Cl)cc3c2=O)cc1", "CLASS_LABEL": "yes (1)"}

Values from PubChem BioAssay (NCI)
